experiment: amyloid nucleation score (Sup35N fusion, yeast selection) (log enrichment); library NNK2; higher = more nucleation; inactive = no reads after selection;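 note: zero at mode of non-aggregating sequences after 7 days selection at 30°C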
endpointLabel: amyloid nucleation score
Answers are plain numbers.

Observe how each entry below is paired with its result.
[
  {
    "substance": "SYECCNKMQDINSMCGKLYW",
    "amyloid nucleation score": 0.274
  },
  {
    "substance": "LSPTYRFGTTSSWGINGRDT",
    "amyloid nucleation score": 0.716
  },
  {
    "substance": "YKWIIESRMGALPKQLCRRA",
    "amyloid nucleation score": -0.465
  }
]

I'm hoping you can list amyloid nucleation score for every substance here, please.
1. ELLQVEYNHHDSKEFMLVMI
2. VEDDDN
3. TLKVRNLNVQEFVVSPNQRH
4. VTVKYRVVTDVLRTMRNDSV
5. WFSDIKSPASLLVSVVVVM

[0.239, -0.2, 4.99, 0.297, 0.272]

Below is a list of substances. For each, state its recorded amyloid nucleation score.
1. GLSAMDDRMVPRIIYWIRLW
2. AESVCYQMTCIPCLLIFNTV
3. GRSGVLLQRGGFVKNSRCEK

1. -0.217
2. 8.97
3. 0.026

====

test: amyloid nucleation score (Sup35N fusion, yeast selection) (log enrichment); library NNK2; higher = more nucleation; inactive = no reads after selection
Provide the reported amyloid nucleation score of each item.
Give bare numbers.

Worked cases, amyloid nucleation score given:
[
  {
    "substance": "TNDMVDHVRRSNHDI",
    "quantitativeReadout": 0.871
  },
  {
    "substance": "LGNRVRMSWNW",
    "quantitativeReadout": 0.807
  },
  {
    "substance": "NFVRRSKSDKPCCYKTHSST",
    "quantitativeReadout": -0.747
  },
  {
    "substance": "IFAVGTTTASKCVWKIVEQE",
    "quantitativeReadout": 2.09
  },
  {
    "substance": "VYKFEKESLLTLSHIHKVAS",
    "quantitativeReadout": -0.012
  },
  {
    "substance": "IWLTVVESRFVTGVVGECYW",
    "quantitativeReadout": 0.255
  },
  {
    "substance": "KSFSCVCPWFGH",
    "quantitativeReadout": 10.3
  },
  {
    "substance": "DYLIAIQLYDFYVHGLIKYR",
    "quantitativeReadout": -0.853
  },
  {
    "substance": "LCYFCISGDRHSLEVKTLVT",
    "quantitativeReadout": -0.527
  },
  {
    "substance": "YVLQYTVKSDVWGTKAIRRP",
    "quantitativeReadout": 0.007
  }
]

Give measured amyloid nucleation score for every item shown.
1. SCCFSMGGPVNVVQSSRMVR
2. IGSRSMNYWLVVFD
3. KRSMKESWVYNLCNRVYCKG
4. WDSRDLMC
5. WYEYCFCGVMLYRTGDCTRR
6. ASIPINHPHRVRLNTSYECI
7. LRMNYIAAVHSCAVLHHFNA
8. WRSDLAVGFYKEMHSRRING

1: -0.781; 2: 1.48; 3: 0.467; 4: 0.344; 5: 3.96; 6: -0.657; 7: 3.13; 8: -0.992

Record amyloid nucleation score per entry; entries follow.
1. DRMQVRSR
2. FVSFSSLTKTLWYRRRRMVR

[0.944, -1.06]

// for each substance in input: emit amyloid nucleation score
1. FPLWSCSHTIINML
2. CGQFAYYGACDVGIFFRS
3. QKMRPNIKVFVYKNVGYNWC
4. GMVNIYDLCYMLLY
5. VVCFMPSFYAGPKI
6. PGHWLTNINISFSACKCLMM
7. FFKGLSKSIQVGL

1: 5.86; 2: 4.74; 3: 8.56; 4: -1.21; 5: 5.28; 6: 8.23; 7: -1.06

Fill in amyloid nucleation score for each of the 8 substances listed.
1. TMQSWFSAFYLVVDMPTRYC
2. VVHSFEWNLRRLSTWWRWGF
3. SWKFNRASPSEMMCASNAWN
4. WFMSIMSKYCRVSF
5. YPISLWLFYGGSGAQTLVVR
6. AKGMGPKNDTTYYFPVSVFE
7. LRGQEKLWGVACSLVLIVTA
8. YTCCLL

-0.232
0.217
0.404
-0.149
2.51
-0.213
1.39
5.91
